For each entry below, report its IC50 value.
System tested: human PARG (PARG-NanoLuc fusion in HEK293T cells) (Homo sapiens (Human), UniProt Q86W56)
Method notes: PARG NanoBRET-based cellular target engagement assay
Assay type: cell-based
Measurement conditions: HEK293T cells transfected with PARG-NanoLuc, NanoBRET probe 0.89 μM, 2 hours; read-out: PARG TE IC50
Description: PARG Nano-luciferase construct: The PARG-NanoLuc® fusion vector was generated by Promega, by inserting the full length human PARG cDNA sequence encoding the 976 amino acid protein (Gene ID: 8505, UniProt: Q86W56) into the pNLF1-C [CMV/Hygro] vector (C-terminal fusions with NanoLuc® enzyme). PARG target engagement tracer synthesis: The NanoBRET tracer for PARG was prepared following a previously reported general tracer synthesis procedure. […]

Compound	System tested	IC50
CO/N=c1\[nH]c2c(-c3ccc(C(=O)N(C)C)cn3)cc(S(=O)(=O)NC3(C)CC3)cc2c(=O)n1Cc1cnn(C)c1 [Example 20]	human PARG (PARG-NanoLuc fusion in HEK293T cells) (Homo sapiens (Human), UniProt Q86W56)	< 30 nM

I would be grateful if you could provide IC50 for each of the following entries.
1. CO/N=c1\[nH]c2c(-c3ccc(CN)cc3)cc(S(=O)(=O)NC3(C)CC3)cc2c(=O)n1Cc1cnn(C)c1 [Example 17]
2. CO/N=c1\[nH]c2c(N3CCN(C(=O)C(C)C)[C@H](C)C3)cc(S(=O)(=O)NC3(C)CC3)cc2c(=O)n1Cc1cnn(C)c1 [Example 35]
3. CO/N=c1\[nH]c2c(N3CCN(C(=O)N4CCCC4)[C@H](C)C3)cc(S(=O)(=O)NC3(C)CC3)cc2c(=O)n1Cc1cnn(C)c1 [Example 40]
4. CO/N=c1\[nH]c2c(C3CCN(C(=O)C4(C)CC4)[C@H](C)C3)cc(S(=O)(=O)NC3(C)CC3)cc2c(=O)n1Cc1cnn(C)c1 (stereo partly drawn) [Example 27]
5. CO/N=c1\[nH]c2c(C3=C[C@@H](C)N(C)CC3)cc(S(=O)(=O)NC3(C)CC3)cc2c(=O)n1Cc1cnn(C)c1 [Example 28]

Ans.
100 to 1000 nM
< 30 nM
< 30 nM
< 30 nM
< 30 nM

###

System tested: Recombinant His-tagged human PARG protein (Homo sapiens (Human))
Method notes: PARG enzymatic assay (TFMU-ADPr fluorescence)
Measurement conditions: 1 nM enzyme, 200 μM TFMU-ADPr, read after 30 minutes
pIC50: −log10 of the molar value.
For each entry below, report its pIC50 value.

Molecule	Readout kind	Recorded measurement
CO/N=c1\[nH]c2c(-c3ccc(CN)cc3)cc(S(=O)(=O)NC3(C)CC3)cc2c(=O)n1Cc1cnn(C)c1 [Example 17]	pIC50	7.00 to 7.52
CO/N=c1\[nH]c2c(N3CCN(C(=O)C4(C#N)CC4)[C@H](C)C3)cc(S(=O)(=O)NC3(C)CC3)cc2c(=O)n1Cc1cnn(C)c1 [Example 33]	pIC50	> 7.52

Here's the next entry for you.
Qu. Write down pIC50 measured for item CO/N=c1\[nH]c2c(-c3cnc(C(=O)N(C)C)[nH]3)cc(S(=O)(=O)NC3(C)CC3)cc2c(=O)n1Cc1cnn(C)c1 [Example 23]
Ans. > 7.52

###

Test system: NCI-H1650
Method notes: Modified cell proliferation assay (CellTiter-Glo), NCI-H1650
Type: cell-based
Measurement conditions: Homo sapiens, NCI-H1650; modified protocol, 384-well, 300 cells per well, 120 h; highest concentration tested 30000 nM; read-out: NCI-H1650 GI50 (high PARG dependency)
For each entry below, report its GI50 value.

Compound	GI50
Cc1nc(C)c(CO/N=c2\[nH]c3ccc(S(=O)(=O)NC4(C)CC4)cc3c(=O)n2Cc2cnn(C)c2)s1	> 2000 nM

I would be grateful if you could provide GI50 for each of the following entries.
1. CCO/N=c1\[nH]c2ccc(S(=O)(=O)NC3(C)CC3)cc2c(=O)n1Cc1cnn(C)c1
2. CO/N=c1\[nH]c2c(-c3ccc(C(=O)N(C)C)c(C)c3)cc(S(=O)(=O)NC3(C)CC3)cc2c(=O)n1Cc1cnn(C)c1
3. CO/N=c1\[nH]c2c(N3CCN(C(=O)C4CCCC4)[C@H](C)C3)cc(S(=O)(=O)NC3(C)CC3)cc2c(=O)n1Cc1cnn(C)c1
4. CO/N=c1\[nH]c2c(N3CCN(C(=O)N(C)C)[C@H](C)C3)cc(S(=O)(=O)NC3(C)CC3)cc2c(=O)n1Cc1cnn(C)c1
5. CO/N=c1\[nH]c2c(-c3ccc(C(N)=O)cc3)cc(S(=O)(=O)NC3(C)CC3)cc2c(=O)n1Cc1cnn(C)c1

Ans.
1. 500 to 2000 nM
2. < 500 nM
3. < 500 nM
4. < 500 nM
5. > 2000 nM

Qu. Write down GI50 measured for item CO/N=c1\[nH]c2c(C3CCN(C(=O)C4(C)CC4)[C@H](C)C3)cc(S(=O)(=O)NC3(C)CC3)cc2c(=O)n1Cc1cnn(C)c1 (stereo partly shown)
Ans. < 500 nM

###

System tested: Recombinant His-tagged human PARG protein (Homo sapiens (Human), UniProt Q86W56)
Sequence (Q86W56 whole entry): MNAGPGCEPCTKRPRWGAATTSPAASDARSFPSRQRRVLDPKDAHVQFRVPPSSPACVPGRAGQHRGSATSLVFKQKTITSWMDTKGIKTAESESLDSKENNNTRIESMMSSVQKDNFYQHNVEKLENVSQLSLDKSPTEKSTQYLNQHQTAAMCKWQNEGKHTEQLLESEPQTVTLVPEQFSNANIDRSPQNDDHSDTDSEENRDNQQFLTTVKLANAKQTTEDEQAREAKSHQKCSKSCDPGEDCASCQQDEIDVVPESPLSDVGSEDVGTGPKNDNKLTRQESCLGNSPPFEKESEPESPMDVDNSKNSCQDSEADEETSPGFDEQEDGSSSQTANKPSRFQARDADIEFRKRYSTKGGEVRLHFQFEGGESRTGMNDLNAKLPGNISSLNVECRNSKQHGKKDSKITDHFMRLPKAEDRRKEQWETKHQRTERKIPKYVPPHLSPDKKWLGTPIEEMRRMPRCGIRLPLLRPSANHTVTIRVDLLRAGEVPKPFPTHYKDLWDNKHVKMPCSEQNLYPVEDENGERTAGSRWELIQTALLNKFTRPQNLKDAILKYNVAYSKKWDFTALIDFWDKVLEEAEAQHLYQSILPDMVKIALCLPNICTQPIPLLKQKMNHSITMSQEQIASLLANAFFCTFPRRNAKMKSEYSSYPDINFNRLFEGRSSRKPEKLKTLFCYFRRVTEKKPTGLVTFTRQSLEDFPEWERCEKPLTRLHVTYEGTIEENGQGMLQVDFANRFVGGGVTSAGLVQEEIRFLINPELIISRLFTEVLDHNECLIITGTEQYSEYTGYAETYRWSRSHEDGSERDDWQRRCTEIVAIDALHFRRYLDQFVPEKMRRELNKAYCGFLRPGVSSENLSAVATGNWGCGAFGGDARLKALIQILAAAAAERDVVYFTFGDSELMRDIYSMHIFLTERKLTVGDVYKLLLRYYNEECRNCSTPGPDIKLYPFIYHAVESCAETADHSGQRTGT
Method notes: PARG enzymatic assay (TFMU-ADPr fluorescence)
Measurement conditions: 1 nM enzyme, 200 μM TFMU-ADPr, read after 30 minutes
Readout kind: IC50

A selection of reference data follows.
Compound	IC50
CO/N=c1\[nH]c2c(N3CCN(C(=O)CC(F)(F)F)[C@H](C)C3)cc(S(=O)(=O)NC3(C)CC3)cc2c(=O)n1Cc1cnn(C)c1 [Example 31]	< 30 nM
CO/N=c1\[nH]c2c(C3=C[C@@H](C)N(C)CC3)cc(S(=O)(=O)NC3(C)CC3)cc2c(=O)n1Cc1cnn(C)c1 [Example 28]	< 30 nM

Here's the next entry for you.
Qu. Write down IC50 measured for item CO/N=c1\[nH]c2c(-c3ccc(C(N)=O)cc3)cc(S(=O)(=O)NC3(C)CC3)cc2c(=O)n1Cc1cnn(C)c1 [Example 15]
Ans. < 30 nM

###

Tested on: RMUG-S mucinous cystadenocarcinoma ovarian cancer cell line
Method notes: Cell proliferation assay (CellTiter-Glo), RMUG-S, Examples 1-11
Assay type: cell-based
Measurement conditions: Examples 1-11: 96-well, 5000 cells per well, 120 hours; highest concentration tested 9000 nM; read-out: RMUG-S GI50 (high PARG dependency)
Readout kind: GI50

Smiles record	GI50
CO/N=c1\[nH]c2c(-c3ccc(C(=O)N(C)C)cc3)cc(S(=O)(=O)NC3(C)CC3)cc2c(=O)n1Cc1cnn(C)c1	500 to 2000 nM
CON=c1[nH]c2c(N3CCN(C(=O)C4(C)CC4)[C@H](C)C3)cc(S(=O)(=O)NC3(C)CC3)cc2c(=O)n1Cc1cnn(C)c1	< 500 nM
CO/N=c1\[nH]c2ccc(S(=O)(=O)NC3(C)COC3)cc2c(=O)n1Cc1cnn(C)c1	2000 to 9000 nM

I would be grateful if you could provide GI50 for each of the following entries.
1. CO/N=c1\[nH]c2c(N3CCN[C@H](C)C3)cc(S(=O)(=O)NC3(C)CC3)cc2c(=O)n1Cc1cnn(C)c1
2. Cc1nc(C)c(CO/N=c2\[nH]c3ccc(S(=O)(=O)NC4(C)CC4)cc3c(=O)n2Cc2cnn(C)c2)s1
3. CO/N=c1\[nH]c2ccc(S(=O)(=O)NC3(C)CC3)cc2c(=O)n1Cc1cnc(C)s1

Ans.
500 to 2000 nM
2000 to 9000 nM
500 to 2000 nM

###

System tested: human PARG (PARG-NanoLuc fusion in HEK293T cells) (Homo sapiens (Human), UniProt Q86W56)
Method notes: PARG NanoBRET-based cellular target engagement assay
Measurement conditions: HEK293T cells transfected with PARG-NanoLuc, NanoBRET probe 0.89 μM, 2 hours; read-out: PARG TE IC50
pIC50: −log10 of the molar value.
Readout kind: pIC50

Compound	Readout kind	Recorded measurement
CO/N=c1\[nH]c2c(-c3ccc(C(=O)N(C)C)nc3)cc(S(=O)(=O)NC3(C)CC3)cc2c(=O)n1Cc1cnn(C)c1	pIC50	> 7.52
CO/N=c1\[nH]c2c(-c3ccc(C(N)=O)cc3)cc(S(=O)(=O)NC3(C)CC3)cc2c(=O)n1Cc1cnn(C)c1	pIC50	7.00 to 7.52
CO/N=c1\[nH]c2c(N3CCN(C(=O)CC(F)(F)F)[C@H](C)C3)cc(S(=O)(=O)NC3(C)CC3)cc2c(=O)n1Cc1cnn(C)c1	pIC50	> 7.52
CO/N=c1\[nH]c2c(N3CCN(C(=O)N(C)CC(F)(F)F)[C@H](C)C3)cc(S(=O)(=O)NC3(C)CC3)cc2c(=O)n1Cc1cnn(C)c1	pIC50	> 7.52
CO/N=c1\[nH]c2c(N3CCN(C(=O)N4CCC(F)(F)C4)[C@H](C)C3)cc(S(=O)(=O)NC3(C)CC3)cc2c(=O)n1Cc1cnn(C)c1	pIC50	> 7.52

I would be grateful if you could provide pIC50 for each of the following entries.
1. CO/N=c1\[nH]c2c(N3CCN(C(=O)C4(C#N)CC4)[C@H](C)C3)cc(S(=O)(=O)NC3(C)CC3)cc2c(=O)n1Cc1cnn(C)c1
2. CO/N=c1\[nH]c2c(-c3ccc(C4(O)CCC4=O)cc3)cc(S(=O)(=O)NC3(C)CC3)cc2c(=O)n1Cc1cnn(C)c1 (stereo not shown)
3. CO/N=c1\[nH]c2ccc(S(=O)(=O)NC3(C)CC3)cc2c(=O)n1Cc1cnn(C(F)(F)F)c1
4. CO/N=c1\[nH]c2c(C3CCN(C(C)=O)[C@H](C)C3)cc(S(=O)(=O)NC3(C)CC3)cc2c(=O)n1Cc1cnn(C)c1 (stereo partly shown)
5. CO/N=c1\[nH]c2c(N3CCN(C(=O)C(F)(F)C4(O)CCC4)[C@H](C)C3)cc(S(=O)(=O)NC3(C)CC3)cc2c(=O)n1Cc1cnn(C)c1 (single isomer, unassigned)
6. CO/N=c1\[nH]c2c(N3CCN(C(=O)C4(N(C)C)CC4)[C@H](C)C3)cc(S(=O)(=O)NC3(C)CC3)cc2c(=O)n1Cc1cnn(C)c1

Ans.
> 7.52
7.00 to 7.52
6.00 to 7.00
> 7.52
> 7.52
> 7.52

I would be grateful if you could provide pIC50 for each of the following entries.
1. CO/N=c1\[nH]c2c(C3CCN(C)[C@H](C)C3)cc(S(=O)(=O)NC3(C)CC3)cc2c(=O)n1Cc1cnn(C)c1 (stereo partly shown)
2. CCO/N=c1\[nH]c2ccc(S(=O)(=O)NC3(C)CC3)cc2c(=O)n1Cc1cnn(C)c1

Ans.
["7.00 to 7.52", "7.00 to 7.52"]
